Test: Pharmacokinetic studies in plasma and organs, 1 mg/kg
Type: in vivo, rats
Conditions: male, rat, prostate, 1 mg/kg
endpoint-name: Cmax
Please report the result as a number followed by the unit.

query: Give its Cmax value. Item: FC(F)(F)CCCC[n+]1ccccc1C1=C2C=CC3=[N+]2[Mn]24[n]5c1ccc5C(c1cccc[n+]1CCCCC(F)(F)F)=C1C=CC(=[N+]12)C(c1cccc[n+]1CCCCC(F)(F)F)=c1ccc([n]14)=C3c1cccc[n+]1CCCCC(F)(F)F
result: 150 nM

---

Assay: Pharmacokinetic studies in plasma and organs, 1 mg/kg
Assay type: in vivo, rats
Details: male, rat, bladder, 1 mg/kg
endpoint-name: Cmax (nM)
Answers are plain numbers, in nM.

query: For the compound shown here, FC(F)(F)CCCC[n+]1ccccc1C1=C2C=CC3=[N+]2[Mn]24[n]5c1ccc5C(c1cccc[n+]1CCCCC(F)(F)F)=C1C=CC(=[N+]12)C(c1cccc[n+]1CCCCC(F)(F)F)=c1ccc([n]14)=C3c1cccc[n+]1CCCCC(F)(F)F [Mn4] , give the reported Cmax.
result: 450

---

Assay: Pharmacokinetic studies in plasma and organs, 1 mg/kg
Format: in vivo, rats
Conditions: male, rat, rectum, 1 mg/kg
endpoint-name: Cmax (nM)
One number for each entry, in nM.

query: Consider the compound shown here: FC(F)(F)CCCC[n+]1ccccc1C1=C2C=CC3=[N+]2[Mn]24[n]5c1ccc5C(c1cccc[n+]1CCCCC(F)(F)F)=C1C=CC(=[N+]12)C(c1cccc[n+]1CCCCC(F)(F)F)=c1ccc([n]14)=C3c1cccc[n+]1CCCCC(F)(F)F What is its recorded Cmax?
result: 105

---

Assay: Pharmacokinetic studies in plasma and organs, 1 mg/kg
Format: in vivo, rats
Settings: male, rat, penis, 1 mg/kg
endpoint-name: Cmax (nM)
Answers are plain numbers, in nM.

query: Record request: Cmax value, item FC(F)(F)CCCC[n+]1ccccc1C1=C2C=CC3=[N+]2[Mn]24[n]5c1ccc5C(c1cccc[n+]1CCCCC(F)(F)F)=C1C=CC(=[N+]12)C(c1cccc[n+]1CCCCC(F)(F)F)=c1ccc([n]14)=C3c1cccc[n+]1CCCCC(F)(F)F
result: 250
